Biological target: GPR40 (Homo sapiens, UniProt O14842)
Construct: expressed in transfected cells
Sequence (O14842 whole entry): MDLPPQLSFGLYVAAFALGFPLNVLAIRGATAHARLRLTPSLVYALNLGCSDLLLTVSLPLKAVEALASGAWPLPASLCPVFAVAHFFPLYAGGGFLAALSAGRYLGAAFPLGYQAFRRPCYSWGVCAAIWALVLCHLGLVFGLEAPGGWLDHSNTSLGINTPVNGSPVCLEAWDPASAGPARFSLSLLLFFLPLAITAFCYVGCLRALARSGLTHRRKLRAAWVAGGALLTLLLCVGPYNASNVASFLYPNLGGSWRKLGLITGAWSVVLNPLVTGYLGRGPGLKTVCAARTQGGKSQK
Assay: Calcium mobilization in GPR40-transfected cells
Format: cell-based
Conditions: calcium mobilization in GPR40-transfed cells
measured-quantity: GPR40 activity (pEC50)

> print(dat)
                              line.notation       measured.quantity  result.value
1    Cc1ccc(C#N)cc1C#Cc1ccc(CCC(=O)O)c(F)c1  GPR40 activity (pEC50)          7.77
2         C/C=C(\C)C#Cc1ccc(CCC(=O)O)c(F)c1  GPR40 activity (pEC50)          7.43
3            O=C(O)CCc1ccc(C#Cc2ccccc2)cc1F  GPR40 activity (pEC50)          7.48
4  CS(=O)(=O)Cc1cccc(C#Cc2ccc(CCC(=O)O)c(F)c2)c1  GPR40 activity (pEC50)          5.71
5         Cc1ccccc1C#Cc1ccc(CCC(=O)O)c(F)c1  GPR40 activity (pEC50)          7.48

Data origin: patent US9499467B2
